- ASSAY SYSTEM: Fuc(a1-3)[GalNAc(b1-4)]GlcNAc
- PROTOCOL TEXT: glycan array binding signal (z-score within array); higher = stronger binding
- TEST CONDITIONS: glycan notation: IUPAC condensed, linker removed
Shown is part of a subset that was picked to be rich in the strongest signals.
VALUE TYPE: glycan array binding signal (z-score)

# example entries with known answers
{"BINDER": "Banana lectin (Musa acuminata) (protein) MNGAIKVGAWGGNGGSAFDMGPAYRIISVKIFSGDVVDGVDVTFTYYGKTETRHYGGSGGTPHEIVLQEGEYLVGMAGEVANYHGAVVLGKLGFSTNKKAYGPFGNTGGTPFSLPIAAGKISGFFGRGGKFLDAIGVYLEPLEHHHHHH", "MEASURED VALUE": -0.132}
{"BINDER": "SynCAM (Mus musculus) (protein) MASAVLPSGSQCAAAAAVAAAAAPPGLRLRLLLLLLSAAALIPTGDGQNLFTKDVTVIEGEVATISCQVNKSDDSVIQLLNPNRQTIYFRDFRPLKDSRFQLLNFSSSELKVSLTNVSISDEGRYFCQLYTDPPQESYTTITVLVPPRNLMIDIQKDTAVEGEEIEVNCTAMASKPATTIRWFKGNKELKGKSEVEEWSDMYTVTSQLMLKVHKEDDGVPVICQVEHPAVTGNLQTQRYLEVQYKPQVHIQMTYPLQGLTREGDAFELTCEAIGKPQPVMVTWVRVDDEMPQHAVLSGPNLFINNLNKTDNGTYRCEASNIVGKAHSDYMLYVYDPPTTIPPP", "MEASURED VALUE": 2.63}
{"BINDER": "OS9 (Arabidopsis thaliana) (protein) MRGSHHHHHHGMASMTGGQQMGRDLYDDDDKSRLQIFPAHLVGTFSRNNREPKYKIEFLPEDSPFHPGDNLESMVMLDKHGNRFLCYLPKEEKATSGWTSSQQNISTVMMETQQLVKLKTPDELLQPLSEKCLFRQEGWWSYEFCHQKYVRQLHVEDENKIVQEFFLGTFDPEATAAFNQTVSDASTDASQRYHSHVYTNGTTCDLTGSPREVEVRFVCAETRAMVTSITELSTCKYALTVQCPTLCKHPLFQLEKPVSHTIHCNAIPVEEDATRNKEEQAVDESPKMIADS", "MEASURED VALUE": 0.056}

# return glycan array binding signal (z-score) for each item in the list
1. XL-35 (Xenopus laevis) (protein) MLVHILLLLVTGGLSQSCDPVVIVASKNMVKQLDCDKFRNCKEIKDSNEEAQDGIYTLTSPDGISYQTFCDMTTNGGGWTLVASVHENNMAGKCTIGDRWSSQQGNRADYPEGDGNWANYNTFGSAGGATSDDYKNPGYYDIEAYNLGVWHVPNKTPLSVWRNSSLQRYRTTDGILFKHGGNLFSLYRIYPVKYGIGSCSKDSGPTVPVVYDLGSANLTASFYSPGFRSQFTPGYIQFRPINTEKAALALCPGMKMESCNVEHVCIGGGGYFPEADPRQCGDFAAYDFNGYGTKKFNSAGIEITEAAVLLFYL
2. KILRGVCKKIMRTFLRRISKDILTGKK [NK2 (Sus scrofa)]
3. Clec18A (Homo sapiens) (protein) PFHTCDLRIDGDCFMVSSEADTYYRARMKCQRKGGVLAQIKRQKVQDILAFYLGRLETTNEVIDSDFETRNFWIGLTYKTAKDSFRWATGEHQAFTSFAFGQPDNHGFGNCVELQASAAFNWNDQRCKTRNRYICQ

1: 6.12; 2: 0.101; 3: 0.38

Hey, just so you know, these numbers are from the supplement of paper PMC8728848.
